These data points were gathered from paper PMC8991199.

Assay system S100A10 (Homo sapiens); read-out recorded as pKd.
// pKd here means minus log10 of the molar concentration (mol/L)

Below, 2 compounds whose answers are already recorded.
- SMILES INPUT: "CC(C)C[C@@H](CC(=O)N[C@H]1CCCC[C@@H]1C(=O)NCC(=O)N[C@@H](CCCCNC(=O)c1ccc2c(c1)C1(OC2=O)c2ccc(O)cc2Oc2cc(O)ccc21)C(N)=O)NC(=O)[C@H]1CCCC[C@@H]1NC(=O)[C@H]1CCCC[C@@H]1NC(=O)C[C@H](Cc1c[nH]c2ccccc12)NC(=O)[C@H]1CCCC[C@@H]1N"
  TARGET ENTITY: "S100A10 (Homo sapiens)"
  RESULT: 4.64
- SMILES INPUT: "CC[C@H](C)[C@@H](CC(=O)N[C@H]1CCCC[C@@H]1C(=O)N[C@H]1CCCC[C@@H]1C(=O)N[C@H](CC(=O)N[C@H]1CCCC[C@@H]1C(=O)NCC(=O)N[C@@H](CCCCNC(=O)c1ccc2c(c1)C1(OC2=O)c2ccc(O)cc2Oc2cc(O)ccc21)C(N)=O)CC(C)C)NC(=O)[C@H]1CCCC[C@@H]1N"
  TARGET ENTITY: "S100A10 (Homo sapiens)"
  RESULT: 4.14

We next turn to a different compound, shown below.
Lookup: pKd / S100A10 (Homo sapiens) / NC(=O)[C@H](CCCCNC(=O)c1ccc2c(c1)C1(OC2=O)c2ccc(O)cc2Oc2cc(O)ccc21)NC(=O)CNC(=O)[C@H]1CCCC[C@@H]1NC(=O)C[C@H](Cc1ccccc1)NC(=O)[C@H]1CCCC[C@@H]1NC(=O)[C@H]1CCCC[C@@H]1NC(=O)C[C@H](Cc1ccc(O)cc1)NC(=O)[C@H]1CCCC[C@@H]1N 4.15
